- Test system: RARb homodimer (NR concentration 270 nM)
- test-method-notes: PBM binding z-score (relative to random genomic background probes); higher = stronger binding; sequences stand for … in GC…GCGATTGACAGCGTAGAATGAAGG
Mark yes for reported PBM binding z-score of 3 or greater; mark no for anything smaller.

In [3]: df
Out[3]:
                                  seq  cat
0  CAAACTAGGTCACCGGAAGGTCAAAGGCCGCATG  yes
1  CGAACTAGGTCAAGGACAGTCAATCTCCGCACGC  yes
2  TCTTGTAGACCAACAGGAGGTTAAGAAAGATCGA   no
3  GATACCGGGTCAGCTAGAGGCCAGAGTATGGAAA   no
4  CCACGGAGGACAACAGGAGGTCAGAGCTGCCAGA  yes

# bool: PBM binding z-score of "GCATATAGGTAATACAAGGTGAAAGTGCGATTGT" >= 3
no

# bool: PBM binding z-score of "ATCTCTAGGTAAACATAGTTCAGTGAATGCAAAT" >= 3
no

# bool: PBM binding z-score of "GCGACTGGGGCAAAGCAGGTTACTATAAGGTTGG" >= 3
no

# bool: PBM binding z-score of "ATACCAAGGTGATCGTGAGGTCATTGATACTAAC" >= 3
yes

# bool: PBM binding z-score of "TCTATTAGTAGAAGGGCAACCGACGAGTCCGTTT" >= 3
no

---

- Tested on: THRa:RXRa (NR concentration 90 nM, RXRa partner concentration 90 nM)
- test-method-notes: PBM binding z-score (relative to random genomic background probes); higher = stronger binding; sequences stand for … in GC…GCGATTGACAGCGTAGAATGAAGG
# reported PBM binding z-score; entries follow

>>> print(df.to_string())
                                  seq         measure_name  result
0  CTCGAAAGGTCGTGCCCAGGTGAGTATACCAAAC  PBM binding z-score    3.87
1  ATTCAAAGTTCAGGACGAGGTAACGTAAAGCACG  PBM binding z-score    3.82
2  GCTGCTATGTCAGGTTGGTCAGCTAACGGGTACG  PBM binding z-score  -0.187
3  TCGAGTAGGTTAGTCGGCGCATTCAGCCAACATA  PBM binding z-score  -0.542
4  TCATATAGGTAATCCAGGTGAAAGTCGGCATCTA  PBM binding z-score    2.41
5  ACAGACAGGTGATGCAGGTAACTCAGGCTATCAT  PBM binding z-score   0.549

What measured PBM binding z-score goes with "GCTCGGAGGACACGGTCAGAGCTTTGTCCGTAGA" ?
1.36

What measured PBM binding z-score goes with "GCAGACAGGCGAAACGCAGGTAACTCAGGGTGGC" ?
0.338

What measured PBM binding z-score goes with "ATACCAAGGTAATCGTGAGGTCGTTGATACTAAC" ?
3.27

What measured PBM binding z-score goes with "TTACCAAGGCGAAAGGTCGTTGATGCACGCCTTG" ?
1.44

What measured PBM binding z-score goes with "TAGCCTAGGTCATTCAGGGACCAGTATAGAAAGC" ?
4.26

What measured PBM binding z-score goes with "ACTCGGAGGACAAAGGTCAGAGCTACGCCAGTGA" ?
3.35

What measured PBM binding z-score goes with "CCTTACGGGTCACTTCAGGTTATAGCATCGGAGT" ?
5.04

What measured PBM binding z-score goes with "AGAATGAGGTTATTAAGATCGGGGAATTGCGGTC" ?
2.2

What measured PBM binding z-score goes with "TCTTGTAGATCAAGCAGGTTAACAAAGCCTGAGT" ?
0.705

What measured PBM binding z-score goes with "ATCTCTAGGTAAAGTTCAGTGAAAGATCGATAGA" ?
1.24

What measured PBM binding z-score goes with "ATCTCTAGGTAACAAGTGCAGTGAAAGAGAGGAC" ?
1.11

---

- Test system: PPARg:RXRa DBDmut IVT, anti-RXR (DBD mutation: RXRa K156A/R161A, NR concentration 270 nM, RXRa partner concentration 90 nM)
- test-method-notes: PBM binding z-score (relative to random genomic background probes); higher = stronger binding; sequences stand for … in GC…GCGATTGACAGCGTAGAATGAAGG
# reported PBM binding z-score; entries follow

# annotated cases, reported PBM binding z-score shown
                                  seq         measure_name  result
0  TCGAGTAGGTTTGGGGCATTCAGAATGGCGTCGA  PBM binding z-score   0.667
1  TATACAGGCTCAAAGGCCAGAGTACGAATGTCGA  PBM binding z-score  -0.518
2  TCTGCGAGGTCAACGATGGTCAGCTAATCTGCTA  PBM binding z-score    3.66
3  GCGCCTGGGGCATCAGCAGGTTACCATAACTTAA  PBM binding z-score  -0.452
4  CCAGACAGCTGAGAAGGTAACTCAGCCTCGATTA  PBM binding z-score  -0.628
5  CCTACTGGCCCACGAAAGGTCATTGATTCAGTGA  PBM binding z-score  -0.126
6  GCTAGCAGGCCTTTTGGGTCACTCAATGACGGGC  PBM binding z-score   0.302
7  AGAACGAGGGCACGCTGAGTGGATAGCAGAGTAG  PBM binding z-score    4.13

What measured PBM binding z-score goes with "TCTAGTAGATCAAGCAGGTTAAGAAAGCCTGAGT" ?
1.47

What measured PBM binding z-score goes with "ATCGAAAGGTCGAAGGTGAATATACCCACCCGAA" ?
0.205

---

- Test system: LXRa homodimer (NR concentration 270 nM)
- test-method-notes: PBM binding z-score (relative to random genomic background probes); higher = stronger binding; sequences stand for … in GC…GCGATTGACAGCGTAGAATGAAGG
measure-name: PBM binding z-score
// no unit string in output, number only

                                  seq         measure_name  quantitative_readout
0  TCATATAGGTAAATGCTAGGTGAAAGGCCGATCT  PBM binding z-score                 0.239
1  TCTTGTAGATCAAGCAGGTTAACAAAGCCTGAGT  PBM binding z-score               0.00608

What measured PBM binding z-score goes with "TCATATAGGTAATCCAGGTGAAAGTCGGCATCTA" ?
0.37

What measured PBM binding z-score goes with "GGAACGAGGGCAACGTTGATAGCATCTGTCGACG" ?
-0.371

What measured PBM binding z-score goes with "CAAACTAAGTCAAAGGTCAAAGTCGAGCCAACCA" ?
5.19

What measured PBM binding z-score goes with "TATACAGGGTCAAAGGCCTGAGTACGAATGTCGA" ?
2.31

What measured PBM binding z-score goes with "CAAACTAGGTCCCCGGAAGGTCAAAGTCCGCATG" ?
2.88

---

- System: VDR homodimer (NR concentration 270 nM)
- test-method-notes: PBM binding z-score (relative to random genomic background probes); higher = stronger binding; sequences stand for … in GC…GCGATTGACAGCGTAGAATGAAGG
# reported PBM binding z-score; entries follow
// no unit string in output, number only

# annotated cases, reported PBM binding z-score shown
>>> df
                                  seq  quantitative_readout
0  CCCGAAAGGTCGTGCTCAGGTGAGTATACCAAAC                  1.48
1  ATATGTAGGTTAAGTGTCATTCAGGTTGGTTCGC                  1.53
2  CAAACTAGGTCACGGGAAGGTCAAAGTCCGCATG                   3.1

What measured PBM binding z-score goes with "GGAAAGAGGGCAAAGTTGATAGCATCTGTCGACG" ?
1.18

What measured PBM binding z-score goes with "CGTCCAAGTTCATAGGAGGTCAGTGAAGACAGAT" ?
6.53

What measured PBM binding z-score goes with "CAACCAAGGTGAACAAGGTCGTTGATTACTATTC" ?
2.59

What measured PBM binding z-score goes with "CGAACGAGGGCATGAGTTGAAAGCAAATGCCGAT" ?
1.57

What measured PBM binding z-score goes with "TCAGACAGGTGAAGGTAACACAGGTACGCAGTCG" ?
0.48

---

# reported PBM binding z-score; entries follow
- System: VDR:RXRa (NR concentration 270 nM, RXRa partner concentration 90 nM)
- test-method-notes: PBM binding z-score (relative to random genomic background probes); higher = stronger binding; sequences stand for … in GC…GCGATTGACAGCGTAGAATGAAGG
// no unit string in output, number only

# annotated cases, reported PBM binding z-score shown
                                  seq         measure_name  quantitative_readout
0  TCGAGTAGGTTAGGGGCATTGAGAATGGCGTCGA  PBM binding z-score                 0.491
1  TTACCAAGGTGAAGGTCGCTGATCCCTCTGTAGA  PBM binding z-score                 0.493
2  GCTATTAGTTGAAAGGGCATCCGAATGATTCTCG  PBM binding z-score                 0.499

Kindly consider the entry below.
What measured PBM binding z-score goes with "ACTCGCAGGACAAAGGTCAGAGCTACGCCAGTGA" ?
2.77

Origin of measurements: the supplement of paper PMC6555819
